# Test system: ACHN renal
# test protocol: NCI-60 one-dose screen, 48 h (100 = growth as untreated, 0 = no growth, -100 = all killed)
# assay conditions: 10 µM unless noted
Compounds without any hit were thinned out: in the full panel of roughly 83,000, 20% have a hit.
Mark y only when growth stays strictly below 90%. Values equal to the cut-off are n.

- molecule: "O=CNc1ccc2c(c1)Cc1cccc(NC=O)c1-2"
  label class: "y"
- molecule: "CC(=O)OCCC/C(=C/c1cc2ccccc2c2ccccc12)[N+](=O)[O-]"
  label class: "y"
- molecule: "COc1ccc(/C=C/c2nc3ccccc3nc2/C=C/c2ccc(OC)cc2)cc1"
  label class: "n"
- molecule: "CC(C)(CCCN=C(N)Nc1ccc(Cl)cc1)c1ccc(F)cc1"
  label class: "y"
- molecule: "N#C/C(=C\\c1ccc(-c2ccc(Cl)c(Cl)c2)o1)c1nc(-c2ccco2)cs1"
  label class: "n"
- molecule: "CC(=O)c1cc(C(=O)c2ccc3c(c2)Sc2ccccc2N3)n2ccccc12"
  label class: "y"
- molecule: "COc1ccc(S(=O)(=O)N2CCCCCC2)cc1NC(=O)c1[nH]c(C)c2c1CCCCC2=O"
  label class: "y"
- molecule: "O=C1NC(=S)N[C@H]1CC(=O)n1cnc2ccccc21"
  label class: "n"
- molecule: "CCCOc1cc2ccccc2cc1C(=O)Nc1nc(N)c2c(ccc3nccc32)[nH]1"
  label class: "y"
- molecule: "Cc1ccccc1COc1ccc(-c2ccnn2-c2ccc(Cl)cc2)cc1"
  label class: "y"
- molecule: "COc1cccc(-c2nc3sccn3c2-c2ccnc(NCCCNS(=O)(=O)c3cccc(F)c3)c2)c1"
  label class: "y"
- molecule: "CC(=O)NCC1c2c(n(C)c3c(Cl)c(Cl)ccc23)C(=O)NC1(C)C (stereo unspecified)"
  label class: "n"
- molecule: "CCCOc1cc2ccccc2cc1C(=O)Nc1nc(NC)c2c(ccc3nccc32)[nH]1"
  label class: "y"
- molecule: "O=Nc1c(O)c(Cl)cc2ccccc12"
  label class: "y"
- molecule: "COc1cccc(/C=C2\\Oc3cc(OCCN4CCCC4)ccc3C2=O)c1"
  label class: "n"
- molecule: "O=C1c2cc3c(cc2-c2c1c1ccc(F)cc1c(=O)n2C[C@H](O)[C@H](O)[C@H](O)CO)OCO3"
  label class: "y"
- molecule: "O=C(CN1CCCCC1)Nc1ccc2oc(=O)ccc2c1"
  label class: "n"
- molecule: "C=CC(=O)Nc1cccc(-c2nc(SC)nc(Nc3ccccc3OC)c2C#N)c1"
  label class: "y"
- molecule: "O=C(Cn1cccc(Nc2ccccc2)c1=O)Nc1ccccc1"
  label class: "n"
- molecule: "Cc1ccc(NC(=O)C2CCC(CN3CCN(C)CC3)CC2)cc1Nc1nccc(-c2cccnc2)n1 (stereo unspecified)"
  label class: "n"
